Task for the reader: assign each of the following compounds its reported IL-1β in cell supernatant.
Test system: THP-1 cells
Test: IL-1β secretion in THP-1 cells stimulated by lipopolysaccharide and sodium urate (gout inflammation model, ELISA)
Type: cell-based
Conditions: 100 μmol/L compound pre-incubated 12 h, then lipopolysaccharide 1 μg/mL 2 h and sodium urate 200 μg/mL 4 h; PMA-differentiated THP-1; model group 8747.09 ± 975.97, control group 214.83 ± 11.92
Marks after values point to notes of the source that are not given here.

O=C(C=Cc1ccc(O)c(O)c1)OC1CC(OC(=O)C=Cc2ccc(O)c(O)c2)(C(=O)O)CC(O)C1O (centres unmarked) : 4176.74 ± 1214.41^b pg/mL
O=C(C=Cc1ccc(O)c(O)c1)OC1CC(O)(C(=O)O)CC(O)C1OC(=O)C=Cc1ccc(O)c(O)c1 (centres unmarked) [4,5-diCQA, 4,5-dicaffeoylquinic acid] : 5572.09 ± 632.81^c pg/mL
O=C(C=Cc1ccc(O)c(O)c1)OC1C(O)CC(OC(=O)C=Cc2ccc(O)c(O)c2)(C(=O)O)CC1O (centres unmarked) : 4647.67 ± 607.03^bc pg/mL
O=C(C=Cc1ccc(O)c(O)c1)OC1CC(O)(C(=O)O)CC(O)C1OC(=O)C=Cc1ccc(O)c(O)c1 (centres unmarked) [3,4-diCQA, 3,4-dicaffeoylquinic acid] : 7088.57 ± 621.91^d pg/mL

Okay, now this compound:
# query: IL-1β in cell supernatant | item O=C(C=Cc1ccc(O)c(O)c1)OC1CC(O)(C(=O)O)CC(OC(=O)C=Cc2ccc(O)c(O)c2)C1O (centres unmarked) | system: THP-1 cells
8850.00 ± 190.20^e pg/mL
